// provenance: the MegaScale stability set (Tsuboyama et al. 2023)

B1: EHEE_rd2_1257 (parent)
chain: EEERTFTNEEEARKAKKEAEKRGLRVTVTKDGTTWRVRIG

Variants of: B1
assayNotes: folding stability dG (cDNA display proteolysis); higher = more stable
conditionParameters: PBS, room temperature
Classes are defined on folding stability dG with ranges class 1 (below 1 kcal/mol), class 2 (1 kcal/mol to below 2 kcal/mol), class 3 (2 kcal/mol or more)

Task: Which class holds N8V ?
Output: class 2

Task: Class (by measured folding stability dG) for E18G
Output: class 1

Task: Category of G32T , please.
Output: class 1

Task: # classify by folding stability dG band: T33N
Output: class 3

Task: Into which bin does this variant go? E10L
Output: class 3

Task: Which folding stability dG band matches F6L ?
Output: class 1

Task: Lab note: sort T7E into the matching folding stability dG band.
Output: class 2
